Hey, just so you know, these numbers are from patent US8148410B2.

target: recombinant human S1P1 receptor (Homo sapiens, UniProt P21453); assay: GTPγS assay to determine EC50 values; settings: agonist concentration inducing 50% of maximal specific 35S-GTPγS binding; membranes of CHO cells expressing recombinant human S1P1
Sequence (P21453 whole entry): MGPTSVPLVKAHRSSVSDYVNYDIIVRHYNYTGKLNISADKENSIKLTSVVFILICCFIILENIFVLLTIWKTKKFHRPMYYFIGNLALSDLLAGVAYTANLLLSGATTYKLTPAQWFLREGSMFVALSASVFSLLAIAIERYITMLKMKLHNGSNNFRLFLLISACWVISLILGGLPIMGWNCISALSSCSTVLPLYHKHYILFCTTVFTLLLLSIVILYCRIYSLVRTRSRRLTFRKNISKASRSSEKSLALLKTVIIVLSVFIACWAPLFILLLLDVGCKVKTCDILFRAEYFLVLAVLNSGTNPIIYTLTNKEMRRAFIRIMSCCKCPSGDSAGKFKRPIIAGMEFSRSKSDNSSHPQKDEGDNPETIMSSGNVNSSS
pEC50: −log10 of the molar value.
observed property: pEC50

A selection of reference data follows.
CCCCN(C)Cc1sc(-c2nc(-c3cc(C)c(OC[C@@H](O)CNC(=O)CO)c(CC)c3)no2)cc1C | 8.70
Cc1cc(-c2nc(-c3cc(C)c(OCC(O)CNC(=O)CO)c(C)c3)no2)sc1CNC(C)C (racemic) | 7.96
CCc1cc(-c2noc(-c3cc(C)c(CN(CC)CC)s3)n2)cc(C)c1OC[C@@H](O)CN1CCC(C(=O)O)C1 (stereo partly shown) | 7.74
CCCN(C)Cc1sc(-c2nc(-c3cc(C)c(OCC(O)CNC(=O)CO)c(C)c3)no2)cc1C (racemic) | 9.70
CCc1cc(-c2noc(-c3cc(C)c(CN(CC)CC)s3)n2)cc(C)c1CCC(=O)NCC(=O)O | 8.07

a. CCCCN(CC)Cc1sc(-c2nc(-c3cc(C)c(OC[C@@H](O)CNC(=O)CO)c(CC)c3)no2)cc1C
b. CCc1cc(-c2noc(-c3cc(C)c(CN(CC)CC)s3)n2)cc(C)c1OC[C@@H](O)CNC(=O)CNC
Ask: Of a and b , whose reported pEC50 is numerically smaller? Please respond with the label that marks your chosen entry.
Result: a
(a: 8.15, b: 8.46)
